- System: MOLT-4 cells
- Procedure details: MTT assay, cytotoxicity against MOLT-4 cells
- Type: cell-based, human
- Experimental context: Homo sapiens, MOLT-4; MTT, 37 °C, treated for 48 h; read-out: EC50 against MOLT-4
pEC50: −log10 of the molar value.
Property label: pEC50

// field: pEC50; key: "c1ccc(-c2ccc(OCc3cc(COc4ccc(-c5ccccn5)nc4)cc(COc4ccc(-c5ccccn5)nc4)c3)cn2)nc1" ; value = > 7.00

----------
- System: MOLT-4 cells
- Procedure details: MTT assay, cytotoxicity against MOLT-4 cells
- Format: cell-based, human
- Experimental context: Homo sapiens, MOLT-4; MTT, 37 °C, treated for 24 h; read-out: EC50 against MOLT-4
Property label: pEC50
Just so you know, pEC50 here is -log10 of the concentration in molar units; reply with that number alone.

// field: pEC50; key: "c1ccc(-c2ccc(OCc3cccc(COc4ccc(-c5ccccn5)nc4)c3)cn2)nc1" ; value = 6.19

// field: pEC50; key: CC(=O)OCOC(=O)CN(CC(=O)OCOC(C)=O)c1ccccc1OCCOc1ccccc1N(CC(=O)OCOC(C)=O)CC(=O)OCOC(C)=O [BAPTA-AM, reference compound] ; value = 4.88

// field: pEC50; key: "c1ccc(-c2ccc(OCc3cc(COc4ccc(-c5ccccn5)nc4)cc(COc4ccc(-c5ccccn5)nc4)c3)cn2)nc1" ; value = 6.68

// field: pEC50; key: "c1ccc(COc2ccc(-c3ccccn3)nc2)cc1" ; value = 5.06

This collection of values is drawn from paper PMC10498496.
